Target: human GLP-1 receptor (human) (UniProt P43220)
Sequence (P43220 24-463): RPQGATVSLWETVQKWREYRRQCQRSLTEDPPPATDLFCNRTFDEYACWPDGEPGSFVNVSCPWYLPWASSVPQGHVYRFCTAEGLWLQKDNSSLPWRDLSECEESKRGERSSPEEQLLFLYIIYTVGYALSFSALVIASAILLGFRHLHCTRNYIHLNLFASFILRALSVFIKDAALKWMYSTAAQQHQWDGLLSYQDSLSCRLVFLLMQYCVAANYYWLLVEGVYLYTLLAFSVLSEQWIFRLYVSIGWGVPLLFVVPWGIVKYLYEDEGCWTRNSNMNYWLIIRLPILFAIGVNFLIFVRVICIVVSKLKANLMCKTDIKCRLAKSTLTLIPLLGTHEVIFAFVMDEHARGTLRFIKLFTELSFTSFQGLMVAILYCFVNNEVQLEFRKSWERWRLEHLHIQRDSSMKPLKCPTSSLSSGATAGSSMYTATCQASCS
Experiment: cell-based or functional assay
Each entry gets class 0 if its cAMP EC50 stays under 200 pM, and class 1 if its cAMP EC50 is 200 pM or above.

{"Binder": "IP171 (Fc fusion) YSEGTFTSDVSSYMERQAISEFIAWLLAGAAAGGSGSTASSGSGSATGGGGAATHTCPPCPAPEF", "Label Value": "class 1"}
{"Binder": "IP349 (Fc fusion) YSEGTFTSDYSKLLERQAIDEFIANLLKGGGGGGGSGGGGSGGGGSGGGGSGGGGSGGGGSA", "Label Value": "class 0"}
{"Binder": "IP413 (Fc fusion) YSEGTFTSDYSKLLEEEASRLFIEWLLAGGGGGGSGGGGSGGGGSGGGGSATHTCPPC", "Label Value": "class 0"}
{"Binder": "IP375 (Fc fusion) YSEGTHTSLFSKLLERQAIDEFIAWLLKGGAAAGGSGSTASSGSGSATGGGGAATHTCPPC", "Label Value": "class 1"}
{"Binder": "IP339 (Fc fusion) YSEGTFTSDYSKLLEKEAQRLFIEWLLAGGGGGGGSGGGGSGGGGSGGGGSGGGGSGGGGSA", "Label Value": "class 0"}
